Data provenance: the supplement of paper PMC10567573

Hi there, I'd appreciate the recorded protein stability index for every entry that follows.
B1: MMP1 (parent)
chain: FVRGDHRDNSPFDGPGGNLAHAFQ

- Variants of: B1
- run description: protein stability index of a GFP-peptide fusion (GPS, HEK-293T) (PSI 1-6); higher = more stable;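 note: lentivirally expressed fusions sorted by FACS into six bins by GFP to DsRed ratio, PSI derived from sequencing read proportions per bin multiplied by bin number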
- measurement context: c terminus: a fixed tail appended

Q: What measured protein stability index goes with FVRGSHRDNSPFDGPGGNLAHAFQ [D5S] ?
A: 2.75

Q: Next: FWRGDHRDNSPFDGPGGNLAHAFQ [V2W]
A: 2.25

Q: Next: FVRGDHRDNSPFDGPGGNLAHARQ [F23R]
A: 2.03

Q: Next: FVRGDHRDNSPFDGPGGNLALAFQ [H21L]
A: 1.57

Q: Next: FVRGDHRDNSPFDGPGLNLAHAFQ [G17L]
A: 2.29

Q: Next: FVRGDHRDNSPFDGPGGNIAHAFQ [L19I]
A: 1.95

Q: Next: FVRGDHRDNSPFPGPGGNLAHAFQ [D13P]
A: 3.31

Q: Next: FVRGDHFDNSPFDGPGGNLAHAFQ [R7F]
A: 2.83

Q: Next: FVRGDHRDNSPFDGPGENLAHAFQ [G17E]
A: 1.6

Q: Next: FVRGDHRDNSPFDGPGGNLAAAFQ [H21A]
A: 2.77

Q: Next: FVIGDHRDNSPFDGPGGNLAHAFQ [R3I]
A: 2.11

Q: Next: FVRNDHRDNSPFDGPGGNLAHAFQ [G4N]
A: 2.04

Q: Next: FVRGDHRDNSPHDGPGGNLAHAFQ [F12H]
A: 1.99

Q: Next: FVREDHRDNSPFDGPGGNLAHAFQ [G4E]
A: 1.76

Q: Next: FVRGDHRDNSPFDGPGGDLAHAFQ [N18D]
A: 1.5

Q: Next: FVRGDHRDTSPFDGPGGNLAHAFQ [N9T]
A: 2.13

Q: Next: FVRSDHRDNSPFDGPGGNLAHAFQ [G4S]
A: 2.41

Q: Next: FVRGDHRDNSPFDGLGGNLAHAFQ [P15L]
A: 1.95

Q: Next: FYRGDHRDNSPFDGPGGNLAHAFQ [V2Y]
A: 3.15

Q: Next: FVRGDHRDNLPFDGPGGNLAHAFQ [S10L]
A: 1.83

Q: Next: FVRGDFRDNSPFDGPGGNLAHAFQ [H6F]
A: 3.13

Q: Next: FVRGDHRDNSPFDGPGANLAHAFQ [G17A]
A: 1.58

Q: Next: FVRGDHRDNMPFDGPGGNLAHAFQ [S10M]
A: 2.11

Q: Next: FVRGDHRDNSPADGPGGNLAHAFQ [F12A]
A: 1.91

Q: Next: FVRGDHRVNSPFDGPGGNLAHAFQ [D8V]
A: 2.25

Q: Next: FVRGDHRDNIPFDGPGGNLAHAFQ [S10I]
A: 1.71

Q: Next: FVRGVHRDNSPFDGPGGNLAHAFQ [D5V]
A: 1.81

Q: Next: FVRGDHRDNSAFDGPGGNLAHAFQ [P11A]
A: 1.81

Q: Next: FVRGDHRDNSPFDGPGGNLARAFQ [H21R]
A: 1.33

Q: Next: FVRGDSRDNSPFDGPGGNLAHAFQ [H6S]
A: 1.85

Q: Next: FVFGDHRDNSPFDGPGGNLAHAFQ [R3F]
A: 1.69

Q: Next: FVMGDHRDNSPFDGPGGNLAHAFQ [R3M]
A: 1.57

Q: Next: FVRGDHRDNSPFDGMGGNLAHAFQ [P15M]
A: 2.72

Q: Next: FVRGDHRDNSPFDGPGGKLAHAFQ [N18K]
A: 2.5

Q: Next: FVRGDHRHNSPFDGPGGNLAHAFQ [D8H]
A: 2.29

Q: Next: FVRGDHRYNSPFDGPGGNLAHAFQ [D8Y]
A: 3.24

Q: Next: FVRGDHRDNSPFDGPGGNAAHAFQ [L19A]
A: 1.38

Q: Next: FVRGDHRDNSPDDGPGGNLAHAFQ [F12D]
A: 2.3

Q: Next: FVRGDHRDNSPFDIPGGNLAHAFQ [G14I]
A: 2.51

Q: Next: FVRGDHRDNSPFDGPGGNLAHAFC [Q24C]
A: 1.72

Q: Next: FVRGDHRDNSPFDGQGGNLAHAFQ [P15Q]
A: 1.64

Q: Next: FVRGDHRDNSWFDGPGGNLAHAFQ [P11W]
A: 1.84

Q: Next: FVRGDHRDNSPFDGPGGFLAHAFQ [N18F]
A: 4.34

Q: Next: FVRGDHRDNSPFDGPGGNLCHAFQ [A20C]
A: 2.69

Q: Next: FVRGDHRDNSPFDGPGGNLAHACQ [F23C]
A: 1.38

Q: Next: EVRGDHRDNSPFDGPGGNLAHAFQ [F1E]
A: 3.97
